Measured CC50 accompanies every entry in the list below.
assay: Cytotoxicity against African green monkey Vero C1008 cells assessed as cell death by three-fold serial dilution method; type: cell-based; conditions: chlorocebus sabaeus, Vero C1008 cells
// return numeric value only (unit: µM, not printed)

Answered examples (2):
>  <record.smiles>
CC(C)(C)c1cc(/C=C/C(=O)c2ccco2)cc(/C=N/c2nccs2)c1O

>  <CC50, µM>
220

$$$$
>  <record.smiles>
CC(C)c1cc(/C=C/C(=O)c2ccco2)cc(/C=N/c2nccs2)c1O

>  <CC50, µM>
60

$$$$

Please give the documented CC50 of `CC(C)(C)c1cc(/C=C/C(=O)c2cccs2)cc(/C=N/c2nccs2)c1O` 40
